Value source: patent US11919900B1

# MIC measurements, system: Mycobacterium tuberculosis H37Rv (ATCC: 25177)
Measure: MIC

[[record]]
compound = "COC(=O)c1c(C(=O)OC)c2c(Br)cc3ccccc3n2c1C(=O)c1ccc(Br)cc1"
study_target = "Mycobacterium tuberculosis H37Rv (ATCC: 25177)"
obs_value = "0.5 µg/mL"

[[record]]
compound = "CCOC(=O)c1cc(C(=O)c2ccc(OC)cc2)n2c1c(Br)cc1ccccc12"
study_target = "Mycobacterium tuberculosis H37Rv (ATCC: 25177)"
obs_value = "1 µg/mL"

[[record]]
compound = "COC(=O)c1c(C(=O)OC)c2c(Br)cc3ccccc3n2c1C(=O)c1ccc(F)cc1"
study_target = "Mycobacterium tuberculosis H37Rv (ATCC: 25177)"
obs_value = "16 µg/mL"

